Organism: Mus musculus
Assay: Radioactivity uptake in the muscle was expressed as a percentage of the injected radioactive dose per gram of tissue (% ID/g) in B16/F1 Murine Melanoma-Bearing C57 Mice at 4 h
Type: functional, organism-based
Decide using ID/g alone. Strictly below 0.04%: yes (1). Equal to or above 0.04%: no (0).

q: Strictly below 0.04%: is that where ID/g of `DOTA-ReCCEHdFRWCKPV-NH2` sits?
a: no (0)

q: # repeat for `Ac-Lys(DOTA)-ReCCEHdFRWCKPV-NH2`
a: yes (1)

q: Please answer likewise for `DOTA-ReCCEHdFRWCKPVD-OH`
a: no (0)

q: Query `DOTA-ReCCEHdFRWCRPV-NH2` next
a: no (0)

q: What do you have for `DOTA-ReCCEHdFRWCKPV-OH` ?
a: yes (1)

* * *

Species on record: Mus musculus
Assay: Uptake Ratio of Tumor/lungs (each in % ID/g) in B16/F1 Murine Melanoma-Bearing C57 Mice at 24 h
Type: functional, organism-based
# note: exactly 90 is not below, so it is Not met; use Met for Uptake ratio strictly under it

q: Would you kindly verify if Uptake ratio of `DOTA-ReCCEHdFRWCKPV-OH` is strictly less than 90?
a: Met

q: Next record, please: `Ac-Lys(DOTA)-ReCCEHdFRWCKPV-NH2`
a: Met

q: Okay, and `DOTA-ReCCEHdFRWCRPV-NH2` ?
a: Met

q: Also, `DOTA-ReCCEHdFRWCKPV-NH2` please.
a: Not met

q: Also, `DOTA-ReCCEHdFRWCKPVD-OH` please.
a: Not met

* * *

Organism: Mus musculus
Test: Uptake Ratio of Tumor/blood (each in % ID/g) in B16/F1 Murine Melanoma-Bearing C57 Mice at 4 h
Type: functional, organism-based
assayEndpoint: Uptake ratio

q: Suppose we examine the substance `DOTA-ReCCEHdFRWCRPV-NH2` ; what Uptake ratio value has been reported?
a: 254

q: Now the same for `DOTA-ReCCEHdFRWCKPV-NH2`
a: 490

q: Please do the same for `DOTA-ReCCEHdFRWCKPV-OH` as well.
a: 200

q: Can you handle `Ac-Lys(DOTA)-ReCCEHdFRWCKPV-NH2` next?
a: 88.7

q: Item: `DOTA-ReCCEHdFRWCKPVD-OH`
a: 199

* * *

Please go through the items and note down their Uptake ratio.
Species on record: Mus musculus
Assay: Uptake Ratio of Tumor/lungs (each in % ID/g) in B16/F1 Murine Melanoma-Bearing C57 Mice at 0.5 h
Assay type: functional, organism-based
Lab note: jot down the number only; don't add units.

q: Please give the measured Uptake ratio for this substance: `DOTA-ReCCEHdFRWCKPV-OH`
a: 9

q: Similarly, `DOTA-ReCCEHdFRWCKPVD-OH` ?
a: 7.8

q: How about this substance: `DOTA-ReCCEHdFRWCKPV-NH2`
a: 6.6

q: Item: `Ac-Lys(DOTA)-ReCCEHdFRWCKPV-NH2`
a: 4.7

q: # iterate: `DOTA-ReCCEHdFRWCRPV-NH2`
a: 11.1

* * *

Organism: Mus musculus
Test: Uptake Ratio of Tumor/liver (each in % ID/g) in B16/F1 Murine Melanoma-Bearing C57 Mice at 4 h
Format: functional, organism-based
assayEndpoint: Uptake ratio
Keep the answer to the number alone.

q: Which Uptake ratio value belongs to `DOTA-ReCCEHdFRWCKPV-NH2` ?
a: 49.4

q: And `DOTA-ReCCEHdFRWCKPVD-OH` ?
a: 46.8

q: Same lookup for `DOTA-ReCCEHdFRWCKPV-OH` , please.
a: 69.1

q: Proceed to `Ac-Lys(DOTA)-ReCCEHdFRWCKPV-NH2`
a: 20.8

q: Then what about the substance `DOTA-ReCCEHdFRWCRPV-NH2` ?
a: 60.2
